Molecular target: UniProtKB Q96FL8
Sequence (Q96FL8 1-570): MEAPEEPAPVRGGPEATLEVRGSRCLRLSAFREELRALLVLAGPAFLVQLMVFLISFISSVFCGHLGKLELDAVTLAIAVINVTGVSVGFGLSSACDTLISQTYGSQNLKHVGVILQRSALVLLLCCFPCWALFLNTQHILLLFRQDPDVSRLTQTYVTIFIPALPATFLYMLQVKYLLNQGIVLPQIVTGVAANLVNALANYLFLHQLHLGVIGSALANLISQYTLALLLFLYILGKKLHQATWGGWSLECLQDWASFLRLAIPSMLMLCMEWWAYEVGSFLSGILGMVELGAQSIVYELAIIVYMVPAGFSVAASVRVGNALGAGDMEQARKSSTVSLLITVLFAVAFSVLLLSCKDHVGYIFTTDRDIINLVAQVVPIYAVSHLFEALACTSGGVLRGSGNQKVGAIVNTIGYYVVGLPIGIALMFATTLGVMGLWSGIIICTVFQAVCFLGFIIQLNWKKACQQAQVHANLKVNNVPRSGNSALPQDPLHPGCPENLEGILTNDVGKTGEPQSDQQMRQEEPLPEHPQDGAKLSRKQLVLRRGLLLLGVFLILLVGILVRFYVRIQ
Experiment: Uptake transporter inhibition assay, MATE1 (metformin)
Conditions: human, Relative inhibition, 30.00 μM nominal, IC50 determination
metric.name: inhibition at 30 μM
Answer by giving the amount and then stating its unit.

Value wanted: inhibition at 30 μM (UniProtKB Q96FL8) of entry OC1(c2ccc(Cl)cc2)c2ccccc2C2=NCCN21 (stereo not shown) [Compound A, reference compound]
79%

* * *

Molecular target: MATE1 (Homo sapiens)
Sequence (Q96FL8 1-570): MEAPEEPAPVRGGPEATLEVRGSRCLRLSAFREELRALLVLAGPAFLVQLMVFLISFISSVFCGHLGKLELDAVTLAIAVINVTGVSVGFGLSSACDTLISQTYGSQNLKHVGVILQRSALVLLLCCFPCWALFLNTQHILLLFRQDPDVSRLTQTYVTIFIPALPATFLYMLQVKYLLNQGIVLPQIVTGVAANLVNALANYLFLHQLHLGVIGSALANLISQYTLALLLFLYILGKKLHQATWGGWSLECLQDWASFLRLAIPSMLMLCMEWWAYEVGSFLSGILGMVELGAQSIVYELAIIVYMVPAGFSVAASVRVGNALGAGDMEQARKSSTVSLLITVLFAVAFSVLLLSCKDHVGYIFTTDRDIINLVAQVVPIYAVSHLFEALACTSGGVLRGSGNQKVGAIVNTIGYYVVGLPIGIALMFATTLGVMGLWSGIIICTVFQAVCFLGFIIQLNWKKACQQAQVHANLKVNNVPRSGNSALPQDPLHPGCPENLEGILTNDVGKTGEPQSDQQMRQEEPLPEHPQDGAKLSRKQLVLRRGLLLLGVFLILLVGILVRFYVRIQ
Experiment: in vitro
metric.name: inhibition at 5 μM (%)
# unit: % | format: bare number

Form field - read-out: inhibition at 5 μM; system: MATE1 (Homo sapiens); submitted item: `CCc1nc(N)nc(N)c1-c1ccc(Cl)cc1`
101

* * *

Target: CYP2B6 (Homo sapiens, UniProt P20813)
Sequence (P20813 1-491): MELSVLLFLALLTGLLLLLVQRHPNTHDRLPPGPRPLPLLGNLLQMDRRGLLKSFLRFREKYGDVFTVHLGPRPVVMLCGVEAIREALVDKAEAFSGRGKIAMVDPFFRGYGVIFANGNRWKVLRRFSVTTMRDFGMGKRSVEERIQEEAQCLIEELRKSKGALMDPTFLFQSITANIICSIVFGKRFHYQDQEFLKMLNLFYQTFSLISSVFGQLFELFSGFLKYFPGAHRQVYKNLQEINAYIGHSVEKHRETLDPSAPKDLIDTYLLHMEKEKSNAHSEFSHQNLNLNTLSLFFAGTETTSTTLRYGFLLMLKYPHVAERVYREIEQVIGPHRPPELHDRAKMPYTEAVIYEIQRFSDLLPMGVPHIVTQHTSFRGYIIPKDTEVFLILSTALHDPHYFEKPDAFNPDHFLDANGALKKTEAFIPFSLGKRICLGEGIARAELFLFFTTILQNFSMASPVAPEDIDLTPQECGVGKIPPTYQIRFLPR
Assay: biochemical
metric.name: IC50 (nM)
Hi! Could you send only the number? It should be in nM, unit omitted.

Given the entry OC1(c2ccc(Cl)cc2)c2ccccc2C2=NCCN21 (stereo not shown) [Compound A, reference compound] , report its measured IC50.
92
